test system: PPARa:RXRa (NR concentration 270 nM, RXRa partner concentration 90 nM); test: PBM binding z-score (relative to random genomic background probes); higher = stronger binding; sequences stand for … in GC…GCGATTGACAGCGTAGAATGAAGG
Parameter: PBM binding z-score. Scope: all listed entries.
Number only, no unit.

Just so you know, measured PBM binding z-score for `CAAATTAGGTCAAGAGGTCAAAGTCCGCTTCCCG` came out at 6.6

Please fill in: PBM binding z-score reported for `ACTAGCAGGCCAAGTTTGGGTCCCTCAAACAAAG` = -0.286

Field PBM binding z-score (entry `AGAATGAGGTTATTAAGATCTGGGAATTGCGGTC` ) reads 2.79

So for `GCTAGCAGGCCATTTGGGTCACTCAATGACGGGC` , the logged PBM binding z-score turned out to be 1.34

Hey, just so you know, these numbers are from the supplement of paper PMC6555819.
